- Tested on: Salmonella enterica
- protocol.details: MIC, liquid culture dilution (single chelates and cross-dilution combinations)
- Assay type: cell-based, Salmonella enterica subp. Enterica serovar enteritidis
# label = t if Minimal inhibitory concentration (MIC) >= 100 ppm else f

| compound | label.value |
| --- | --- |
| C[C@H](N)C(=O)[O-].C[C@H](N)C(=O)[O-].O.[Zn+2] [Zn(H2O) bis-alaninate] | t |
| N[C@@H](CC(=O)[O-])C(=O)[O-].[Zn+2] [Zn mono-aspartate] | f |
| CCCCC(=O)[O-].CCCCC(=O)[O-].O.[Zn+2] [Zn(H2O) bis-valerianate] | t |
| NC(=O)CC(N)C(=O)[O][Cu]([NH3+])([NH3+])[O]C(=O)C(N)CC(N)=O (centres unmarked) [Cu diammine bis-asparaginate] | t |
| O=C([O-])CN(CC(=O)[O-])CC(=O)O.[Zn+2] [Zn nitrolotriacetate] | f |
| NCC(=O)[O-].NCC(=O)[O-].O.[Cu+2] [Copper (H2O) bis-glycinate] | t |
| O=C(O)c1ccccc1[O-].O=C(O)c1ccccc1[O-].[Zn+2] [Zn bis-salycilate] | t |
| CCC(=O)[O-].CCC(=O)[O-].O.[Zn+2] [Zn(H2O) bis-propionate] | t |
